# Tested on: DIV14
# assay-remarks: qHTS profiling for inhibitors of Plasmodium falciparum proliferation (AID 504749); note: nearly all actives have a fitted effect of over 60% in size
# cond: P. falciparum in erythrocytes, SYBR Green DNA, 72 h; series mostly up to 28.7 µM
Inconclusive results are not listed. The source made the active and inactive calls. Calls come from the whole dose curve; as a rule, active = well fitted inhibition curve with a large enough effect; inconclusive = small, poorly fitted or top-dose-only effect; inactive = flat fitted curve, though single readings scatter.
Possible outcomes: active, inactive

{"compound": "Cc1nnc(NS(=O)(=O)c2ccc(N)cc2)s1", "label-value": "inactive"}
{"compound": "Cc1oc(=O)oc1CN1CCN(c2cc3c(cc2F)c(=O)c(C(=O)O)c2n3C(C)S2)CC1 (configuration not stated)", "label-value": "active"}
{"compound": "O=S(=O)(O)CCS", "label-value": "inactive"}
{"compound": "CCCc1nc(C)c2c(=O)[nH]c(-c3cc(S(=O)(=O)N4CCN(CC)CC4)ccc3OCC)nn12", "label-value": "active"}
{"compound": "Cc1noc(NS(=O)(=O)c2ccc(N)cc2)c1C", "label-value": "inactive"}
{"compound": "COc1ccc(C(=O)CC(=O)c2ccc(C(C)(C)C)cc2)cc1", "label-value": "inactive"}
{"compound": "CCn1cc(C(=O)O)c(=O)c2cc(F)c(N3CCNCC3)cc21", "label-value": "inactive"}
